Items are presented alongside their recorded hEphA10-SEAP-: absorbance at 450 nm, percentage with respect to hEphA4-SEAP-His as 100%.
Biological target: T1, human EphA10 (Homo sapiens, UniProt Q5JZY3)
T1 construct: a protein of the extracellular region of each human Eph receptor fused with the SEAP protein and the His tag; made in house; host or cells: Expi293F cells (culture supernatant)
T1 sequence (Q5JZY3 34-565 limits assumed): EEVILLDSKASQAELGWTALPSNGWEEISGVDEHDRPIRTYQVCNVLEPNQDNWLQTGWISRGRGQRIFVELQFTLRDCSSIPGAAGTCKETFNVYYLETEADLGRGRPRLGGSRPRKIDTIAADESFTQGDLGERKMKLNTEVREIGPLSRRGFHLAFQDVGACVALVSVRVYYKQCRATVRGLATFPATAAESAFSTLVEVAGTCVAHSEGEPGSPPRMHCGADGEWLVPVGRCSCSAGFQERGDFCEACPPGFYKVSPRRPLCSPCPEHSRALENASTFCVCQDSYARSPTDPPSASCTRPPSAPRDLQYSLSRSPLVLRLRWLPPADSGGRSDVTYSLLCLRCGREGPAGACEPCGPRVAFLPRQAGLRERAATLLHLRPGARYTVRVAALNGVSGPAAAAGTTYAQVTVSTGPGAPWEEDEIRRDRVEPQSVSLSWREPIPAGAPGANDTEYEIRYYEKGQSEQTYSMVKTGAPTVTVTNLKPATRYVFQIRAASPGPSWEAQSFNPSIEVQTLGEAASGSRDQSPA
Assay: Selectivity ELISA of humanized antibodies for human Eph receptor
Type: binding
Conditions: coated protein 1 nM
The figure you give is taken to be in %; do not add the unit.

[[record]]
molecule = "69 (antibody, V domains shown, synthetic humanized antibody heavy chain variable region sequence; synthetic humanized antibody light chain variable region sequence) VH: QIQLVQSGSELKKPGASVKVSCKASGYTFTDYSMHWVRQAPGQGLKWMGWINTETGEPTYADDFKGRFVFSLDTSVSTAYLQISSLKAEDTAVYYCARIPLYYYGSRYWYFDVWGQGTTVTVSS VL: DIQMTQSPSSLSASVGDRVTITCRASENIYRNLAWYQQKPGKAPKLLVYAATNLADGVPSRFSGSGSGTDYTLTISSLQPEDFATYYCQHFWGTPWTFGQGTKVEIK"
observed_result = 5.4

[[record]]
molecule = "156 (antibody, V domains shown, synthetic humanized antibody heavy chain variable region sequence; synthetic humanized antibody light chain variable region sequence) VH: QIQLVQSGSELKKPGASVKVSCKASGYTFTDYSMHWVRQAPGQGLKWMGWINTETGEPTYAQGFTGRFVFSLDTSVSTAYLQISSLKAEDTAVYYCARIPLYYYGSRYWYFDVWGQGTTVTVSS VL: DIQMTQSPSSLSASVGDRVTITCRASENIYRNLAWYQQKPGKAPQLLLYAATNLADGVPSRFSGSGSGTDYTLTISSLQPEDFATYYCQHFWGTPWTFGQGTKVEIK"
observed_result = 5.3


Now take the following molecule into account.
INPUT: Quick one: hEphA10-SEAP-: absorbance at 450 nm, percentage with respect to hEphA4-SEAP-His as 100% for 142 (antibody, V domains shown, synthetic humanized antibody heavy chain variable region sequence; synthetic humanized antibody light chain variable region sequence) VH: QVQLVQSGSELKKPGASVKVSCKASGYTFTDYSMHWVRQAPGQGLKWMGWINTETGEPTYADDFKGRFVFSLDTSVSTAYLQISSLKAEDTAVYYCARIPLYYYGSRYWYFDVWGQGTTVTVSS VL: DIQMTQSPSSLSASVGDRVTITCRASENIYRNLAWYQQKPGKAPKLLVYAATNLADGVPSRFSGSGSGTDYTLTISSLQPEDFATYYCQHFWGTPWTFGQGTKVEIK ?
OUTPUT: 5.4
